- System: A. baumannii (ATCC 19606)
- Type: cell-based
- EXPERIMENTAL CONTEXT: ATCC 19606
Positions of bridges follow the written chain, without caps; N, C: chain ends. Non-standard residues stand in square brackets, D forms with d. Residues, ends and D or L forms follow the SMILES beside them. *: point of attachment. S(2-cyclohexylethyl) = C1CCC(CCS*)CC1; X3 = c1ccc(Oc2ccc(CS*)cc2)cc1; S(3-Methylbutyl) = CC(C)CCS*; Dab = NCC[C@H](N)C(=O)O; X1 = CC(C)CCCCS*
MEASURED QUANTITY: MIC A. baumannii (ATCC 19606) (µg/mL)
# unit: µg/mL | format: bare number

GET /value?item= CC(C)C[C@@H]1NC(=O)[C@@H](Cc2ccccc2)NC(=O)[C@H](CCN)NC(=O)[C@@H](NC(=O)[C@H](CCN)NC(=O)[C@@H](NC(=O)[C@H](N)CSSCc2ccc(Oc3ccccc3)cc2)[C@@H](C)O)CCNC(=O)[C@H]([C@@H](C)O)NC(=O)[C@H](CCN)NC(=O)[C@H](CCN)NC1=O [Compound 37] (H-[dC](X3)T[Dab][Dab][Dab][dF]L[Dab][Dab]T; lactam 4-C) &field=MIC A. baumannii (ATCC 19606) returns 1

molecule CC(C)CCCCSSC[C@@H](N)C(=O)N[C@H](C(=O)N[C@@H](CCN)C(=O)N[C@H]1CCNC(=O)[C@H]([C@@H](C)O)NC(=O)[C@H](CCN)NC(=O)[C@H](CCN)NC(=O)[C@H](CC(C)C)NC(=O)[C@@H](Cc2ccccc2)NC(=O)[C@H](CCN)NC1=O)[C@@H](C)O [Compound 20b] (H-[dC](X1)T[Dab][Dab][Dab][dF]L[Dab][Dab]T; lactam 4-C) , MIC A. baumannii (ATCC 19606) observed: 2

Value of MIC A. baumannii (ATCC 19606) reported for the molecule CC(C)CCSSC[C@@H](NC(=O)CN)C(=O)N[C@H](C(=O)N[C@@H](CCN)C(=O)N[C@H]1CCNC(=O)[C@H]([C@@H](C)O)NC(=O)[C@H](CCN)NC(=O)[C@H](CCN)NC(=O)[C@H](CC(C)C)NC(=O)[C@@H](Cc2ccccc2)NC(=O)[C@H](CCN)NC1=O)[C@@H](C)O [Compound 22b] (H-G[dC](S(3-Methylbutyl))T[Dab][Dab][Dab][dF]L[Dab][Dab]T; lactam 5-C) is 1

For CC(C)C[C@@H]1NC(=O)[C@@H](Cc2ccccc2)NC(=O)[C@H](CCN)NC(=O)[C@@H](NC(=O)[C@H](CCN)NC(=O)[C@@H](NC(=O)[C@@H](CSSCCC2CCCCC2)NC(=O)CN)[C@@H](C)O)CCNC(=O)[C@H]([C@@H](C)O)NC(=O)[C@H](CCN)NC(=O)[C@H](CCN)NC1=O [Compound 23b] (H-G[dC](S(2-cyclohexylethyl))T[Dab][Dab][Dab][dF]L[Dab][Dab]T; lactam 5-C) the molecule record lists MIC A. baumannii (ATCC 19606) as 1

---

Measured MIC A. baumannii (ATCC 19606) by item
- System: A. baumannii (ATCC 19606)
- Type: cell-based
- EXPERIMENTAL CONTEXT: ATCC 19606
Positions of bridges follow the written chain, without caps; N, C: chain ends. Non-standard residues stand in square brackets, D forms with d. Residues, ends and D or L forms follow the SMILES beside them. *: point of attachment. Phenylthio(4-OPh) = c1ccc(Oc2ccc(S*)cc2)cc1; X6 = c1ccc(-c2ccc(S*)cc2)cc1; Dab = NCC[C@H](N)C(=O)O; X1 = CC(C)CCCCS*

Example entries and their recorded answers appear below.
{"COMPOUND": "CC(C)CCCCSSC[C@H](N)C(=O)N[C@H](C(=O)N[C@@H](CCN)C(=O)N[C@H]1CCNC(=O)[C@H]([C@@H](C)O)NC(=O)[C@H](CCN)NC(=O)[C@H](CCN)NC(=O)[C@H](CC(C)C)NC(=O)[C@@H](Cc2ccccc2)NC(=O)[C@H](CCN)NC1=O)[C@@H](C)O [Compound 20a] (H-C(X1)T[Dab][Dab][Dab][dF]L[Dab][Dab]T; lactam 4-C)", "MEASURED TARGET": "A. baumannii (ATCC 19606)", "MIC A. baumannii (ATCC 19606)": "4 mg/L"}
{"COMPOUND": "CC(C)C[C@@H]1NC(=O)[C@@H](Cc2ccccc2)NC(=O)[C@H](CCN)NC(=O)[C@@H](NC(=O)[C@H](CCN)NC(=O)[C@@H](NC(=O)[C@@H](CSSc2ccc(Oc3ccccc3)cc2)NC(=O)CN)[C@@H](C)O)CCNC(=O)[C@H]([C@@H](C)O)NC(=O)[C@H](CCN)NC(=O)[C@H](CCN)NC1=O [Compound 32b] (H-G[dC](Phenylthio(4-OPh))T[Dab][Dab][Dab][dF]L[Dab][Dab]T; lactam 5-C)", "MEASURED TARGET": "A. baumannii (ATCC 19606)", "MIC A. baumannii (ATCC 19606)": "8 mg/L"}

Turning now to a further record.
Field MIC A. baumannii (ATCC 19606) (entry CC(C)C[C@@H]1NC(=O)[C@@H](Cc2ccccc2)NC(=O)[C@H](CCN)NC(=O)[C@@H](NC(=O)[C@H](CCN)NC(=O)[C@@H](NC(=O)[C@H](CSSc2ccc(-c3ccccc3)cc2)NC(=O)CN)[C@@H](C)O)CCNC(=O)[C@H]([C@@H](C)O)NC(=O)[C@H](CCN)NC(=O)[C@H](CCN)NC1=O [Compound 31a] (H-GC(X6)T[Dab][Dab][Dab][dF]L[Dab][Dab]T; lactam 5-C) ) reads 16 mg/L

---

- System: P. aeruginosa (ATCC 27853)
- Format: cell-based
- EXPERIMENTAL CONTEXT: ATCC 27853
Positions of bridges follow the written chain, without caps; N, C: chain ends. Non-standard residues stand in square brackets, D forms with d. Residues, ends and D or L forms follow the SMILES beside them. *: point of attachment. S(2-cyclohexylethyl) = C1CCC(CCS*)CC1; X6 = c1ccc(-c2ccc(S*)cc2)cc1; Dab = NCC[C@H](N)C(=O)O; X1 = CC(C)CCCCS*
Recorded measurements of MIC P. aeruginosa (ATCC 27853), one per entry
Lab book: enter the figure in µg/mL, no units written.

See these solved cases before continuing.
{"MOLECULE": "CC(C)C[C@@H]1NC(=O)[C@@H](Cc2ccccc2)NC(=O)[C@H](CCN)NC(=O)[C@@H](NC(=O)[C@H](CCN)NC(=O)[C@@H](NC(=O)[C@@H](CSSCCC2CCCCC2)NC(=O)CN)[C@@H](C)O)CCNC(=O)[C@H]([C@@H](C)O)NC(=O)[C@H](CCN)NC(=O)[C@H](CCN)NC1=O [Compound 23b] (H-G[dC](S(2-cyclohexylethyl))T[Dab][Dab][Dab][dF]L[Dab][Dab]T; lactam 5-C)", "MIC P. aeruginosa (ATCC 27853) / µg/mL": 1}
{"MOLECULE": "CC(C)C[C@@H]1NC(=O)[C@@H](Cc2ccccc2)NC(=O)[C@H](CCN)NC(=O)[C@@H](NC(=O)[C@H](CCN)NC(=O)[C@@H](NC(=O)[C@H](N)CSSc2ccc(-c3ccccc3)cc2)[C@@H](C)O)CCNC(=O)[C@H]([C@@H](C)O)NC(=O)[C@H](CCN)NC(=O)[C@H](CCN)NC1=O [Compound 29b] (H-[dC](X6)T[Dab][Dab][Dab][dF]L[Dab][Dab]T; lactam 4-C)", "MIC P. aeruginosa (ATCC 27853) / µg/mL": 8}

# evaluate next
Log: P. aeruginosa (ATCC 27853), molecule CC(C)CCCCSSC[C@@H](N)C(=O)N[C@H](C(=O)N[C@@H](CCN)C(=O)N[C@H]1CCNC(=O)[C@H]([C@@H](C)O)NC(=O)[C@H](CCN)NC(=O)[C@H](CCN)NC(=O)[C@H](CC(C)C)NC(=O)[C@@H](Cc2ccccc2)NC(=O)[C@H](CCN)NC1=O)[C@@H](C)O [Compound 20b] (H-[dC](X1)T[Dab][Dab][Dab][dF]L[Dab][Dab]T; lactam 4-C) , MIC P. aeruginosa (ATCC 27853) = 16

---

- Test system: differentiated conditionally immortalized PTECs (ciPTECs, OAT-1)
- MEASUREMENT DESCRIPTION: ciPTEC toxicity assay (PrestoBlue)
- Format: cell-based, human
Positions of bridges follow the written chain, without caps; N, C: chain ends. Non-standard residues stand in square brackets, D forms with d. Residues, ends and D or L forms follow the SMILES beside them. *: point of attachment. S(3-Cl-benzyl) = Clc1cccc(CS*)c1; Dab = NCC[C@H](N)C(=O)O; X1 = CC(C)CCCCS*
Each entry below carries its recorded TC50, Day 2.
Give the value, in units of µM, as a plain number.

{"MOLECULE": "CC(C)CCCCSSC[C@H](NC(=O)CN)C(=O)N[C@H](C(=O)N[C@@H](CCN)C(=O)N[C@H]1CCNC(=O)[C@H]([C@@H](C)O)NC(=O)[C@H](CCN)NC(=O)[C@H](CCN)NC(=O)[C@H](CC(C)C)NC(=O)[C@@H](Cc2ccccc2)NC(=O)[C@H](CCN)NC1=O)[C@@H](C)O [Compound 24a] (H-GC(X1)T[Dab][Dab][Dab][dF]L[Dab][Dab]T; lactam 5-C)", "MEASURED TARGET": "differentiated conditionally immortalized PTECs (ciPTECs, OAT-1)", "TC50, Day 2 (µM)": 327}

What the record says about CC(C)CCCCSSC[C@@H](N)C(=O)N[C@H](C(=O)N[C@@H](CCN)C(=O)N[C@H]1CCNC(=O)[C@H]([C@@H](C)O)NC(=O)[C@H](CCN)NC(=O)[C@H](CCN)NC(=O)[C@H](CC(C)C)NC(=O)[C@@H](Cc2ccccc2)NC(=O)[C@H](CCN)NC1=O)[C@@H](C)O [Compound 20b] (H-[dC](X1)T[Dab][Dab][Dab][dF]L[Dab][Dab]T; lactam 4-C) : TC50, Day 2 is 135

So, CC(C)C[C@@H]1NC(=O)[C@@H](Cc2ccccc2)NC(=O)[C@H](CCN)NC(=O)[C@@H](NC(=O)[C@H](CCN)NC(=O)[C@@H](NC(=O)[C@H](N)CSSCc2cccc(Cl)c2)[C@@H](C)O)CCNC(=O)[C@H]([C@@H](C)O)NC(=O)[C@H](CCN)NC(=O)[C@H](CCN)NC1=O [Compound 38] (H-[dC](S(3-Cl-benzyl))T[Dab][Dab][Dab][dF]L[Dab][Dab]T; lactam 4-C) ? Its TC50, Day 2 was 74

The values you see were collected from paper PMC9743094.
